Origin of measurements: PubChem BioAssay (NCI)

assay_name: NCI Yeast Anticancer Drug Screen. Data for the cln2 rad14 strain (AID 165);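 note: 0% = growth equal to vehicle treated cultures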
experimental_parameters: S. cerevisiae cln2 rad14 strain, at 50.0 µM, active compounds read high
Compounds without any hit were thinned out: in the full panel of roughly 79,000, 15% have a hit.
result_type: growth inhibition (%)
Your answer should be a plain number; it is taken to be in %.

// sample O=C(OC(c1ccc(Cl)cc1)c1ccc(Cl)cc1)C(c1ccc(Cl)cc1)c1ccc(Cl)cc1 , its growth inhibition was -13.5

// sample Nc1ccc2c(c1)C(=O)c1cc(C(=O)O)ccc1-2 , its growth inhibition was 15.9

// sample CCCN1CN(C(C(=O)N[C@@H]2C(=O)N3C(C(=O)O)=C(C)CSC23)c2ccc(O)cc2)CSC1=S (some centres not stated) , its growth inhibition was -25.8

// sample NCCCNCCCCNC(=O)C(O)NC(=O)CC(O)CCCCN=C(N)N (configuration not stated) , its growth inhibition was 16.8

// sample O=S(=O)(O)NNc1ccc(N=Nc2ccccc2)cc1 , its growth inhibition was 11.3

// sample O=[N+]([O-])Cc1ccc(Cl)cc1 , its growth inhibition was -33

// sample COc1ccc(NC=O)c(C(=O)CCNC(C)=O)c1 , its growth inhibition was -6.8

// sample NNc1nnnc2ccccc12 , its growth inhibition was -38.2

// sample CCSc1cccc(C(=O)O)c1 , its growth inhibition was -27.8

// sample Cc1ccc2[nH]c(=O)[nH]c2c1 , its growth inhibition was -5.3

// sample O=C1CC2(CCCCC2)C(=O)N1c1cc([N+](=O)[O-])ccn1 , its growth inhibition was 17.6

// sample COC(=O)C(C)OC(=O)OCC(C)C (configuration not stated) , its growth inhibition was -2.95

---

Provide the reported growth inhibition of each item.
assay_name: NCI Yeast Anticancer Drug Screen. Data for the sgs1 mgt1 strain (AID 161);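 note: 0% = growth of cultures given vehicle only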
experimental_parameters: S. cerevisiae sgs1 mgt1 strain, at 50.0 µM, active compounds read high
Procedure: Growth inhibition of yeast strains with defined genetic alterations is measured as a screen for potential anti-cancer activity. Selected strains with alterations in DNA damage repair or cell cycle control were exposed to compounds and growth inhibition was measured relative to vehicle treated controls. The strain used in this assay is sgs1 mgt1
Compounds without any hit were thinned out: in the full panel of roughly 79,000, 15% have a hit. Active and inactive are the calls of the source. Cut-off read from the data, not from the text of the source: active = growth inhibition above about 70%; inactive = the rest.

// sample O=C(CN1C(=O)CC(NC(=O)OCc2ccccc2)C1=O)NCC(=O)Oc1ccc([N+](=O)[O-])cc1 (stereo not given) , its growth inhibition was 26.9% (inactive)

// sample COc1ccc(N2C=Nn3c(nc4sc5c(c4c3=O)CCCC5)C2)cc1 , its growth inhibition was 0.35% (inactive)

// sample CCCCCCCCCCCCCCCCCC(CCCCCCCC)CCCCCCCC , its growth inhibition was -30.8% (inactive)

// sample CC1N(/N=C/c2ccccc2)C(c2ccccc2)C(c2ccccc2)N1/N=C/c1ccccc1 (stereo not given) , its growth inhibition was 17.2% (inactive)

// sample CC(=O)[C@@H](C)C(=O)N1C(=O)OC[C@@]12[C@@H]1CC[C@@H](C1)C2(C)C , its growth inhibition was -25.9% (inactive)

---

Provide the reported growth inhibition of each item.
assay_name: NCI Yeast Anticancer Drug Screen. Data for the mlh1 rad18 strain (AID 175)
experimental_parameters: S. cerevisiae mlh1 rad18 strain growth inhibition; at 50.0 µM; active compounds read high
This is part of a sample that, as a whole, favours compounds with a hit. Of some 79,000 tested, about 15% had one in any assay.
Your answer should be a plain number; it is taken to be in %.

// sample CC(C)SC(CC(O)C(O)COC(=O)c1ccccc1)SC(C)C (stereo not given) , its growth inhibition was 17.8

// sample Cc1ccc(S(=O)(=O)NCCCN(CCCNS(=O)(=O)c2ccc(C)cc2)S(=O)(=O)c2ccc(C)cc2)cc1 , its growth inhibition was -12.2

// sample CCOC(=O)c1[nH]c(C)c(/C(C)=N\NC(N)=O)c1C , its growth inhibition was 10.5

// sample FC(F)(F)c1cccc(-c2nc3nc(Cl)c(Cl)nc3[nH]2)c1 , its growth inhibition was 26.3

// sample COC(=O)C(=O)C(C(=O)C(=O)Nc1nc(=S)[nH][nH]1)c1nc2ccc([N+](=O)[O-])cc2[nH]c1=O (stereo not given) , its growth inhibition was 18.9
